Target: T1, human Glypican-3 expressed on 293 cells (pFLAG-CMV3 hGPC3) (human, UniProt P51654 25-554)
T1 construct: whole, on cells; FLAG-tagged through the vector; also called human GPC-3
T1 sequence (P51654 25-554 limits assumed): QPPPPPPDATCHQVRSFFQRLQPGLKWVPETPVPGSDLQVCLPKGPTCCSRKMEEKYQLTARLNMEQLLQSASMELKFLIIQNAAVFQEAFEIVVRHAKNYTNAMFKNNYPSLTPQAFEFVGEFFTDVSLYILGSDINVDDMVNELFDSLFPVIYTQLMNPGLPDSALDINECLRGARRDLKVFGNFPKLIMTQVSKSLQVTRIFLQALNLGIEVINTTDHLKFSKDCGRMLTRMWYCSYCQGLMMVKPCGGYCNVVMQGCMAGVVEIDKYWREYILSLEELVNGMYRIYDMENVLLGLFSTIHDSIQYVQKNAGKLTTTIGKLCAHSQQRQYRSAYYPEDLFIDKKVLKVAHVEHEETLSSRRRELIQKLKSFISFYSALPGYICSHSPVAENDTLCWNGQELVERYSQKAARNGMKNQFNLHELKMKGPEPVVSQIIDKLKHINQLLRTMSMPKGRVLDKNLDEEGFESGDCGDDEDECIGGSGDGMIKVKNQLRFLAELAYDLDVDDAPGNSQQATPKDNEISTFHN
Assay: FACS on 293 cells transfected with pFLAG-CMV3 hGPC3
Metric Name: binding result

anti-GPC-1 antibody 1-57 (antibody, V domains shown, detection was with anti-mouse IgG and the control was mouse IgG2a; also called #10; clone 1-57) VH: AVTLDESGGGLQTPGGGLSLVCKGSGFTLTDRGMHWVRQAPGKGLEWVAAISSSGRFTLYAPAVTGRATISRDNGQSTVRLQLNNLRAEDTGTYYCARGNAGGWWADGGEIDAWGHGTEVIVST VL: ALTQPSSVSANPGETVKITCSGGSGSYGWFQQKSPGSAPVTVIYSNNKRPTDIPSRFSGSKSGSTNTLTITGVQADDEAVYFCGSADSSYIGIFGAGTTLTV ... no binding
anti-GPC-1 antibody 2-60 (antibody, V domains shown, detection was with anti-mouse IgG and the control was mouse IgG2a; also called #17; clone 2-60) VH: AVTLDESGGGLQTPGGALSLVCKASGFTYSSYAMGWVRQAPGKGLEFVASISSDGSDTAYGSAVKGRATISRDNRQSTLRLQLNNLRAEDTGTYYCAKSYRCSWNCWDYAAKIDAWGHGTEVTVS VL: VALTQPASVSANPGETVKITCSGSGSYTGSYYYGWYQQKSPGSAPVTVIYNNNKRPSDIPSRFSGSTSGSTATLTITGVQAEDEAVYFCGSYDRSSDSGIFGAGTTLTV ... no binding
anti-GPC-1 antibody 1-12 (antibody, V domains shown, it was captured and detected with anti-mouse IgG and the control was mouse IgG2a; also called #4; clone 1-12) VH: AVTLDESGGGLQTPGRALSLVCKASGFTFSRYAMYWVRQAPGKGLEFVAGIGNTGRYTGYGSAVKGRATISRDSGQSTVRLQLNNLRAEDTGNYYCAKSVSPYCCDAADIDAWGHGTEVIVST VL: ALTQPASVSANPGETVKITCSGGSSGYAYGWYQQKSPGSAPVTLLYSNNNRPSDIPSRFSGSKSGSTATLTITGVQAEDEAVYFCGSVDSSSYAGIFGAGTTLTV ... no binding
